Where do these numbers come from? They come from ChEMBL document CHEMBL4765228.

biological target: Serine/threonine-protein kinase Chk2 (Homo sapiens); assay: Inhibition of human CHK2 assessed as residual activity at 1 uM relative to control
property: Activity (%)

smiles code: Cn1cc(/C=C2\C(=O)Nc3ccc(S(N)(=O)=O)cc32)c2ccccc21
Activity [%]: 5

I = COc1ccc2c(c1)c(/C=C1\C(=O)Nc3ccc(S(=O)(=O)N(C)C)cc31)cn2C
II = COc1ccc2[nH]cc(/C=C3\C(=O)Nc4ccc(S(N)(=O)=O)cc43)c2c1
Ask: Select one: I or II . Criterion: greater recorded Activity. # reply format: chosen label
Reply: I

A = CN(C)S(=O)(=O)c1ccc2c(c1)/C(=C/c1cn(C)c3ccc(O)cc13)C(=O)N2
B = COc1ccc2c(c1)c(/C=C1\C(=O)Nc3ccc(S(N)(=O)=O)cc31)cn2C
Ask: Pick one: A or B . Which has the bigger Activity number? Select an item and report its label.
Reply: A

###

target: Tyrosine-protein kinase SYK (Homo sapiens); test: Inhibition of human SYK (1 to 635 residues) assessed as residual activity at 0.1 uM relative to control
property: Activity (%)

smiles code: CN(C)S(=O)(=O)c1ccc2c(c1)/C(=C/c1cn(C)c3ccc(O)cc13)C(=O)N2
measured result: 107
--
smiles code: COc1ccc2[nH]cc(/C=C3\C(=O)Nc4ccc(S(N)(=O)=O)cc43)c2c1
measured result: 86

P = Cn1cc(/C=C2\C(=O)Nc3ccc(S(N)(=O)=O)cc32)c2ccccc21
Q = COc1ccc2c(c1)c(/C=C1\C(=O)Nc3ccc(S(=O)(=O)N(C)C)cc31)cn2C
Ask: Sort P and Q by Activity descending and give the first. Let me know the label of the one you choose.
Reply: Q
(Q: 102%, P: 69%)

###

molecular target: Tyrosine-protein kinase Lck (Homo sapiens); experiment: Inhibition of human LCK assessed as residual activity at 1 uM relative to control
property: Activity (%)

a = CNS(=O)(=O)c1ccc2c(c1)/C(=C/c1cn(C)c3ccc(OC)cc13)C(=O)N2
b = COc1ccc2[nH]cc(/C=C3\C(=O)Nc4ccc(S(N)(=O)=O)cc43)c2c1
Ask: Select one: a or b . Criterion: greater recorded Activity. Write the label of whichever entry you select.
Reply: b

a = Cn1cc(/C=C2\C(=O)Nc3ccc(S(N)(=O)=O)cc32)c2ccccc21
b = CN(C)S(=O)(=O)c1ccc2c(c1)/C(=C/c1cn(C)c3ccc(O)cc13)C(=O)N2
Ask: Which of these two has the smaller recorded Activity: a or b ? Give the chosen item's label as your response.
Reply: b
(b: 33%, a: 50%)

a = COc1ccc2c(c1)c(/C=C1\C(=O)Nc3ccc(S(=O)(=O)N(C)C)cc31)cn2C
b = COc1ccc2c(c1)c(/C=C1\C(=O)Nc3ccc(S(N)(=O)=O)cc31)cn2C
Ask: Compare a and b by numeric Activity and name the larger one. Indicate which entry you chose by stating its label.
Reply: a
(a: 64%, b: 32%)

###

biological target: UniProt P17948; test: Inhibition of human VEGFR1 assessed as residual activity at 1 uM relative to control
Sequence (P17948 whole entry): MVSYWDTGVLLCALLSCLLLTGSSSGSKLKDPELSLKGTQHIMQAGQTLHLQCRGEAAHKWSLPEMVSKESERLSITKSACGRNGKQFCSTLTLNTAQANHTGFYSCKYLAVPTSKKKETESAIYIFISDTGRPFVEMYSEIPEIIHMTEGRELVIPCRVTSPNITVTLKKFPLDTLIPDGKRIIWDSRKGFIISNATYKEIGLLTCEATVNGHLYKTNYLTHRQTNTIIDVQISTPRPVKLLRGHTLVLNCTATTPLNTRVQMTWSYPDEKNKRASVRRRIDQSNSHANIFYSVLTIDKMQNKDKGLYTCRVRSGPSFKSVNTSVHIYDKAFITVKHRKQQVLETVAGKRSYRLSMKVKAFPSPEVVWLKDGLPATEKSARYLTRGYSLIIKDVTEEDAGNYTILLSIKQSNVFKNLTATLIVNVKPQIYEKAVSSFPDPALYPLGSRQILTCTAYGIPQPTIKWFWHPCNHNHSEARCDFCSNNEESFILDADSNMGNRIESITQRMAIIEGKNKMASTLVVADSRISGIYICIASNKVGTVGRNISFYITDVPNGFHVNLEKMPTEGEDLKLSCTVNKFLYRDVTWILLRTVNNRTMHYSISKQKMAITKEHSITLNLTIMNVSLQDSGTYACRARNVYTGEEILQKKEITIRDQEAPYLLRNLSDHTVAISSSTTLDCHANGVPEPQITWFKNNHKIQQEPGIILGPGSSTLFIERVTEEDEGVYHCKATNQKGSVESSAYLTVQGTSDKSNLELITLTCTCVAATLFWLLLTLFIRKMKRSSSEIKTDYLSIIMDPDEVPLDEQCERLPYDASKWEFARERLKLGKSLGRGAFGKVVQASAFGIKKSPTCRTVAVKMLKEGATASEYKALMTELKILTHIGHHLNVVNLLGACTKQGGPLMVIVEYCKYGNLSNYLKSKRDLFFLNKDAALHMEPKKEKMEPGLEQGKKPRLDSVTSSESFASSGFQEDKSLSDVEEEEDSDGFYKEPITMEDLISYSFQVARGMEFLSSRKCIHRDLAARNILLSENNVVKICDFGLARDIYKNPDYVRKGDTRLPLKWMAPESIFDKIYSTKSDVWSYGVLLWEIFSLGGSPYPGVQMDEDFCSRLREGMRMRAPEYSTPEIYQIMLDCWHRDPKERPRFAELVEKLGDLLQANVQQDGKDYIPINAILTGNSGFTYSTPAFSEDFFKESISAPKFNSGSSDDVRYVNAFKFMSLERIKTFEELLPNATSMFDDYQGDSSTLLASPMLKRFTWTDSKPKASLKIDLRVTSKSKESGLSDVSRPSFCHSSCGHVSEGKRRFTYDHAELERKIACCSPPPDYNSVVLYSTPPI
property: Activity (%)

Consider the worked cases shown below.
smiles code: COc1ccc2c(c1)c(/C=C1\C(=O)Nc3ccc(S(=O)(=O)N(C)C)cc31)cn2C
units label: %
Activity: 93
//
smiles code: COc1ccc2[nH]cc(/C=C3\C(=O)Nc4ccc(S(N)(=O)=O)cc43)c2c1
units label: %
Activity: 76

1 = CNS(=O)(=O)c1ccc2c(c1)/C(=C/c1cn(C)c3ccc(OC)cc13)C(=O)N2
2 = CN(C)S(=O)(=O)c1ccc2c(c1)/C(=C/c1cn(C)c3ccc(O)cc13)C(=O)N2
Ask: Could you kindly indicate whether 1 or 2 has the higher Activity value? Field: selected label. Fill in the label of the entry you choose.
Reply: 2
